Value source: patent US8877795B2

- Target Or System: human wild type TTR (Homo sapiens (Human), UniProt P02766)
- Experiment Notes: Isothermal titration calorimetry (ITC) of ligands against TTR
- Assay type: binding
- Condition Parameters: ITC
- Experimental: Calorimetric titrations were carried out on a VP-ITC calorimeter (MicroCal, Northhampton, Mass.). […] Prior to each titration, all samples were degassed for 10 minutes. The initial injection of 3.0 μL was followed by 30 injections of 8.0 μL each (25° C.) to the point that TTR was fully saturated with ligand. Integration of the thermogram after subtraction of blanks yielded a binding isotherm that was analyzed with MicroCal Origin 5.0 software.
Let's look at some molecules and their measured ΔH binding enthalpy.

Molecule: O=C(O)Cc1ccccc1Nc1c(Cl)cccc1Cl [Diclofenac, reference compound]
Measurement Units: kcal/mol
ΔH binding enthalpy: -4.69
--
Molecule: O=C(c1cc(O)c(O)c([N+](=O)[O-])c1)c1ccccc1F [Ro 41-0960, reference compound]
Measurement Units: kcal/mol
ΔH binding enthalpy: -13.5
--
Molecule: O=C(O)c1ccc(-c2c(F)cccc2F)cc1 [Compound 1, reference compound]
Measurement Units: kcal/mol
ΔH binding enthalpy: -31.46

----------
Let's look at some molecules and their measured % fibril formation.
- Target Or System: WT TTR (Homo sapiens (Human))
- Experiment Notes: Acid-mediated fibril formation assay for TTR amyloidogenesis (turbidity)
- Condition Parameters: ligand 7.2 μM, TTR 3.6 μM, pH 4.4, 37° C., 72 h; no ligand = 100%

Molecule: CC1(C)NC(=O)C(C#N)=C(SCc2ccccc2)S1
% fibril formation (%): 0.52

Molecule: N#CC1=C(SCc2ccccc2)SC(c2ccccc2O)NC1=O (stereo not drawn)
% fibril formation (%): 3.17

Molecule: Cc1n[nH]c(C)c1CCc1nc2c3ccccc3[nH]c(=S)n2n1 [drawing 73]
% fibril formation (%): 0.00
